- Test system: NCI-H23 lung
- PROTOCOL TEXT: NCI tumour cell line growth inhibition, 48 h
This section presents compounds with their documented TGI values.
ENDPOINT LABEL: TGI

>  <COMPOUND>
C[C@]1(O)CC(=O)c2c(c(-c3ccc4cc5c(c(O)c4c3O)C(=O)C[C@@](C)(O)C5)c3cccc(O)c3c2O)C1

>  <TEST VALUE>
12.9 µM

$$$$
>  <COMPOUND>
O=C(N/N=C\c1ccc([N+](=O)[O-])cc1)Nc1ccccc1

>  <TEST VALUE>
> 100 µM

$$$$
>  <COMPOUND>
COc1ccc(C2Cc3cc(OC)c(OC)c(OC)c3C2=O)cc1 (stereo not given)

>  <TEST VALUE>
> 100 µM

$$$$
>  <COMPOUND>
COc1cccc(C2=NN(C(C)=O)C(c3cc(OC)c(OC)c(OC)c3)C2)c1 (stereo not given)

>  <TEST VALUE>
> 100 µM

$$$$
>  <COMPOUND>
CCOC(=O)N/N=C/C1=NN(C(=O)OCC)S(=O)C1C (stereo not given)

>  <TEST VALUE>
> 100 µM

$$$$
>  <COMPOUND>
C/C(=C/CNc1ncnc2c1ncn2CCC(=O)O)CO

>  <TEST VALUE>
> 100 µM

$$$$
>  <COMPOUND>
CCOP(=O)(OCC)/C(=C/c1ccccc1)CC(C)=O

>  <TEST VALUE>
> 100 µM

$$$$
>  <COMPOUND>
Cn1c(O)c(C=N)c(=O)n(C)c1=O

>  <TEST VALUE>
> 100 µM

$$$$
>  <COMPOUND>
Clc1ccc(N/N=C/c2ccccn2)nc1

>  <TEST VALUE>
> 100 µM

$$$$
>  <COMPOUND>
O=C(/C=C/c1ccccc1O)c1ccccc1

>  <TEST VALUE>
23.2 µM

$$$$
>  <COMPOUND>
S=c1cn[nH]c2ccc(Br)cc12

>  <TEST VALUE>
> 100 µM

$$$$
>  <COMPOUND>
N#Cc1cc2c(n(C3OC(CO)C(O)C(O)C3O)c1=S)CCCCC2 (stereo not given)

>  <TEST VALUE>
> 100 µM

$$$$
>  <COMPOUND>
CCC1(O)C(=O)OCc2c1cc1n(c2=O)Cc2c-1nc1ccccc1c2OC (stereo not given)

>  <TEST VALUE>
0.0749 µM

$$$$
>  <COMPOUND>
Cc1nc2ccc(N=Nc3c(O)ccc4ccccc34)cc2[nH]1

>  <TEST VALUE>
> 100 µM

$$$$
>  <COMPOUND>
Cc1nc(NC(=O)COc2cccc(/C=C3\COc4ccccc4C3=O)c2)sc1C

>  <TEST VALUE>
4.12 µM

$$$$

====

- Tested on: HCC-2998 colon
- PROTOCOL TEXT: NCI tumour cell line growth inhibition, 48 h

>  <MOLECULE>
CCOC(=O)NC(=O)c1cn(CCCCCCCCCCC(=O)N2CCN(CCn3cc(C(=O)NC(=O)OCC)c(=O)[nH]c3=O)CC2)c(=O)[nH]c1=O

>  <TARGET SYSTEM>
HCC-2998 colon

>  <TGI>
> 100 µM

$$$$
>  <MOLECULE>
Cc1nc2ccc(N=Nc3c(O)ccc4ccccc34)cc2[nH]1

>  <TARGET SYSTEM>
HCC-2998 colon

>  <TGI>
> 70.5 µM

$$$$
>  <MOLECULE>
CCOP(=O)(OCC)/C(=C/c1ccccc1)CC(C)=O

>  <TARGET SYSTEM>
HCC-2998 colon

>  <TGI>
> 100 µM

$$$$
>  <MOLECULE>
Cc1c(NC(=O)CCCl)c(=O)oc2c(C)c3occc(=O)c3cc12

>  <TARGET SYSTEM>
HCC-2998 colon

>  <TGI>
> 100 µM

$$$$
>  <MOLECULE>
Cc1cc(C)nc(NC(=S)Nc2cccc(Cl)c2)c1

>  <TARGET SYSTEM>
HCC-2998 colon

>  <TGI>
> 100 µM

$$$$
>  <MOLECULE>
COc1cccc(/C=N/[N-]C(N)=O)c1[O-].[Cu+2].[OH3+].c1cnc2c(c1)ccc1cccnc12

>  <TARGET SYSTEM>
HCC-2998 colon

>  <TGI>
49.1 µM

$$$$
>  <MOLECULE>
Cc1cc(=O)cc2sc3cc(Cl)ccc3nc1-2

>  <TARGET SYSTEM>
HCC-2998 colon

>  <TGI>
24.6 µM

$$$$
>  <MOLECULE>
NC(N)=NS(=O)(=O)c1ccc(Nc2c3ccccc3nc3ccc(C(=O)Nc4ccc(S(N)(=O)=O)cc4)cc23)cc1

>  <TARGET SYSTEM>
HCC-2998 colon

>  <TGI>
> 100 µM

$$$$
>  <MOLECULE>
O=C(Nc1cccc(-n2cc(-c3ccncc3)c(-c3cc(O)cc(Cl)c3)n2)c1)Nc1ccc(Cl)c(Cl)c1

>  <TARGET SYSTEM>
HCC-2998 colon

>  <TGI>
8.99 µM

$$$$
>  <MOLECULE>
Cc1cc2c(cc1C)C(=O)c1ncccc1C2=O

>  <TARGET SYSTEM>
HCC-2998 colon

>  <TGI>
> 100 µM

$$$$

====

- Tested on: EKVX NSCLC
- PROTOCOL TEXT: NCI tumour cell line growth inhibition, 48 h
Examples of compounds with documented TGI follow.
ENDPOINT LABEL: TGI (µM)

>  <COMPOUND>
Oc1c(Cl)cc(C(c2cc(Cl)c(O)c(Cl)c2)C(c2cc(Cl)c(O)c(Cl)c2)c2cc(Cl)c(O)c(Cl)c2)cc1Cl

>  <TARGET SYSTEM>
EKVX NSCLC

>  <ENDPOINT LABEL>
TGI

>  <MODIFIER SIGN>
=

>  <TEST VALUE>
17.2

$$$$
>  <COMPOUND>
CCOP(=O)(OCC)/C(=C/c1ccccc1)CC(C)=O

>  <TARGET SYSTEM>
EKVX NSCLC

>  <ENDPOINT LABEL>
TGI

>  <MODIFIER SIGN>
>

>  <TEST VALUE>
100

$$$$
>  <COMPOUND>
CCCCCCCCCCCCCCCCc1c(C(=O)OC)[nH]c(=S)[nH]c1=O

>  <TARGET SYSTEM>
EKVX NSCLC

>  <ENDPOINT LABEL>
TGI

>  <MODIFIER SIGN>
>

>  <TEST VALUE>
50

$$$$
>  <COMPOUND>
C[C@H]1O[C@@H](O[C@H]2[C@@H](O)C[C@H](O[C@H]3[C@@H](O)C[C@H](O[C@H]4CC[C@]5(C)C6C[C@@H](O)[C@]7(C)[C@@H](C8=CC(=O)OC8)CC[C@]7(O)C6CC[C@@H]5C4)O[C@@H]3C)O[C@@H]2C)C[C@H](O)[C@@H]1O (some centres undefined)

>  <TARGET SYSTEM>
EKVX NSCLC

>  <ENDPOINT LABEL>
TGI

>  <MODIFIER SIGN>
=

>  <TEST VALUE>
0.124

$$$$
>  <COMPOUND>
CCOC(=O)C(=CNC(Cc1c[nH]c2ccccc12)C(=O)OC)C(=O)OCC (centres undefined)

>  <TARGET SYSTEM>
EKVX NSCLC

>  <ENDPOINT LABEL>
TGI

>  <MODIFIER SIGN>
>

>  <TEST VALUE>
100

$$$$
>  <COMPOUND>
NCCCCN

>  <TARGET SYSTEM>
EKVX NSCLC

>  <ENDPOINT LABEL>
TGI

>  <MODIFIER SIGN>
>

>  <TEST VALUE>
100

$$$$
>  <COMPOUND>
CC(Br)C(=O)c1ccc2cc(Br)c3ccccc3c2c1 (centres undefined)

>  <TARGET SYSTEM>
EKVX NSCLC

>  <ENDPOINT LABEL>
TGI

>  <MODIFIER SIGN>
=

>  <TEST VALUE>
28.9

$$$$
>  <COMPOUND>
S=C(Nc1ccc(-c2nc3ccccc3s2)cc1)Nc1ccccn1

>  <TARGET SYSTEM>
EKVX NSCLC

>  <ENDPOINT LABEL>
TGI

>  <MODIFIER SIGN>
>

>  <TEST VALUE>
50.1

$$$$
>  <COMPOUND>
O=C(/C=C/c1ccccc1O)c1ccccc1

>  <TARGET SYSTEM>
EKVX NSCLC

>  <ENDPOINT LABEL>
TGI

>  <MODIFIER SIGN>
=

>  <TEST VALUE>
29.2

$$$$

====

- System: HL-60(TB) leukemia
- PROTOCOL TEXT: NCI tumour cell line growth inhibition, 48 h

>  <MOLECULE>
Cc1cc(=O)cc2sc3cc(Cl)ccc3nc1-2

>  <MODIFIER SIGN>
=

>  <TGI (µM)>
26.2

$$$$
>  <MOLECULE>
CCOC(=O)C(Cc1ccc(OC(=O)c2ccc(OC)cc2OC)cc1)NC(=O)C(F)(F)F (configuration not stated)

>  <MODIFIER SIGN>
=

>  <TGI (µM)>
51.1

$$$$
>  <MOLECULE>
O=C1OC(C2Cc3cc4c(cc3C2=O)CCC4)c2ccccc21 (configuration not stated)

>  <MODIFIER SIGN>
>

>  <TGI (µM)>
100

$$$$
>  <MOLECULE>
COc1cc(O)c2c(=O)c3ccccc3n(C)c2c1

>  <MODIFIER SIGN>
>

>  <TGI (µM)>
100

$$$$
>  <MOLECULE>
O=S1Cc2ccccc2CS1 (configuration not stated)

>  <MODIFIER SIGN>
=

>  <TGI (µM)>
40.9

$$$$
>  <MOLECULE>
S=C1CNC(=S)CN1

>  <MODIFIER SIGN>
>

>  <TGI (µM)>
100

$$$$
>  <MOLECULE>
Clc1ccc(N/N=C/c2ccccn2)nc1

>  <MODIFIER SIGN>
=

>  <TGI (µM)>
1.31

$$$$
>  <MOLECULE>
O=S1(=O)COc2ccccc2-c2ncncc21

>  <MODIFIER SIGN>
>

>  <TGI (µM)>
100

$$$$
>  <MOLECULE>
COc1ccc(S(=O)(=O)Nc2cc(/C=C\c3cc(OC)c(OC)c(OC)c3)cc(OC)c2OC)cc1OC

>  <MODIFIER SIGN>
>

>  <TGI (µM)>
100

$$$$
>  <MOLECULE>
S=c1cn[nH]c2ccc(Br)cc12

>  <MODIFIER SIGN>
>

>  <TGI (µM)>
100

$$$$
>  <MOLECULE>
Nc1cccc(-c2nc3sccn3c2-c2ccnc(NCCCNS(=O)(=O)c3ccc(C(F)(F)F)cc3)n2)c1

>  <MODIFIER SIGN>
=

>  <TGI (µM)>
11.8

$$$$
>  <MOLECULE>
COc1c(Nc2ncc(Cl)c(N[C@@H]3[C@H]4C=CC(C4)[C@@H]3C(N)=O)n2)ccc2c1CC[C@@H](N1CCOCC1)CC2

>  <MODIFIER SIGN>
=

>  <TGI (µM)>
20.6

$$$$
>  <MOLECULE>
CCOC(=O)c1c(N2CCOCC2)[nH]c(=O)c(C(c2c(O)c(C(=O)OCC)c(N3CCOCC3)[nH]c2=O)C(C)C)c1O

>  <MODIFIER SIGN>
>

>  <TGI (µM)>
100

$$$$
>  <MOLECULE>
C[C@@]12CCC[C@@](C)(C(=O)O)C1CC[C@]13C=C(CO)[C@](O)(CCC12)C3 (some centres not stated)

>  <MODIFIER SIGN>
>

>  <TGI (µM)>
100

$$$$
>  <MOLECULE>
CCCCCCCCCCCCCCCCCC(=O)[O][Sn]([CH2]CCC)([CH2]CCC)[CH2]CCC

>  <MODIFIER SIGN>
=

>  <TGI (µM)>
0.489

$$$$
>  <MOLECULE>
NC(=O)ON=C1CCN(Cc2ccccc2)CC1

>  <MODIFIER SIGN>
>

>  <TGI (µM)>
100

$$$$
>  <MOLECULE>
CCOC(=O)/C(=C/c1cc(OC)ccc1OC)CC(=O)O

>  <MODIFIER SIGN>
>

>  <TGI (µM)>
31.6

$$$$
>  <MOLECULE>
COC(=O)C(C(=O)C(=O)Nc1c(Cl)cc([N+](=O)[O-])cc1Cl)c1nc2cc(C)c(C)cc2[nH]c1=O (configuration not stated)

>  <MODIFIER SIGN>
>

>  <TGI (µM)>
100

$$$$
>  <MOLECULE>
Cn1c(O)c(C=N)c(=O)n(C)c1=O

>  <MODIFIER SIGN>
>

>  <TGI (µM)>
100

$$$$
>  <MOLECULE>
CCCCC(SC(=S)N(CC)CC)C(=O)Nc1nc(CC(=O)OCC)cs1 (configuration not stated)

>  <MODIFIER SIGN>
=

>  <TGI (µM)>
98.5

$$$$
>  <MOLECULE>
Cc1cc2c(cc1Cl)SC(NN(C)C)=NS2(=O)=O

>  <MODIFIER SIGN>
>

>  <TGI (µM)>
10

$$$$
>  <MOLECULE>
Fc1cc(C2=C[C@H](c3ccc4c(c3)OCO4)NC(=S)N2)c(Cl)cc1Cl

>  <MODIFIER SIGN>
=

>  <TGI (µM)>
0.23

$$$$
